- tested_on: IgE-Tb binding to soluble IgE receptor FcεR1α (Y131A mutation) (Homo sapiens, UniProt P01854, N146Q/N252Q)
- Sequence (P01854 whole entry N146Q/N252Q, looked up): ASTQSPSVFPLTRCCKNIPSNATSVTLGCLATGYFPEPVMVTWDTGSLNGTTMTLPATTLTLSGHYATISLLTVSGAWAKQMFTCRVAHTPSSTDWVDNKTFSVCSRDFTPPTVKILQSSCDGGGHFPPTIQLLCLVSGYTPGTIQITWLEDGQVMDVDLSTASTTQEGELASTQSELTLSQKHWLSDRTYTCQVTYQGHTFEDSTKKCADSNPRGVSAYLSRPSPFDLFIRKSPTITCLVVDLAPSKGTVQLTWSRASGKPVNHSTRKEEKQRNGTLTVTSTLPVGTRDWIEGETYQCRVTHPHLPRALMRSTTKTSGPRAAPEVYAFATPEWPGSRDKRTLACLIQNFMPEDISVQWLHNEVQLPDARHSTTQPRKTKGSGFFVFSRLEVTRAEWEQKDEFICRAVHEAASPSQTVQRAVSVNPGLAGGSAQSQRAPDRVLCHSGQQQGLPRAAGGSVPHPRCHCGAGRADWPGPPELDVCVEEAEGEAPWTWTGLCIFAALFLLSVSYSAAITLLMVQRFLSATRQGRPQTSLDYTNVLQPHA
- experiment_notes: In vitro FRET assay: inhibition of binding of IgE-Tb to receptor FcεR1α-Y131A-AF488
- run_conditions: read-out: FRET IC50 range
Reported IC50 values follow for various compounds
quantity_kind: IC50

* CC(C)CNS(=O)(=O)c1cc2c(c3cnc(C4CC4)cc13)C(Nc1nncn1-c1ccnn1C)CC2 (centres unmarked) [Example 3] | 100 to 2000 nM
* Cc1nnc(-c2ccc(NC3CCc4cc(S(=O)(=O)NCC(C)(C)F)c5cc(C6CC6)ncc5c43)cn2)o1 (centres unmarked) [Example 76] | 100 to 2000 nM
* CC(C)(F)CNS(=O)(=O)c1cc2c(c3cnc(C4CC4)cc13)C(Nc1ccc3c(c1)CC(=O)N3)CC2 (centres unmarked) [Example 29] | 100 to 2000 nM
* CCNc1c(NC2CCc3c2cc(S(=O)(=O)NCC(C)C)c2cc(C4CC4)ncc32)c(=O)c1=O (single isomer, unassigned) [Example 53] | 10 to 50 nM
* CC(C)CNS(=O)(=O)c1cc2c(c3cnc(C4CC4)cc13)[C@@H](Nc1nc3ccccc3[nH]1)CC2 (single isomer, unassigned) [Example 80] | 10 to 50 nM
* Cn1ncc2c(NC3CCc4c3cc(S(=O)(=O)NCC(C)(C)F)c3cc(C5CC5)ncc43)cncc21 (centres unmarked) [Example 41] | 10 to 50 nM
* CCNC(=O)N[C@@H]1CCc2c1cc(S(=O)(=O)NCC(C)C)c1cc(C3CC3)ncc21 (stereo in doubt) [Example 85] | 10 to 50 nM
* CC(C)(F)CNS(=O)(=O)c1cc2c(c3cnc(C4CC4)cc13)CCC2Nc1cccnc1 (centres unmarked) [Example 31] | 10 to 50 nM
* CC(C)(F)CNS(=O)(=O)c1cc2c(c3cnc(C4CC4)cc13)CC[C@H]2NC(=O)NCC1CC1 (single isomer, unassigned) [Example 8] | 100 to 2000 nM
* CCn1cnnc1NC1CCc2cc(S(=O)(=O)NCC(C)C)c3cc(C4CC4)ncc3c21 (single isomer, unassigned) [Example 73] | 10 to 50 nM
* CC(C)CNS(=O)(=O)c1cc2c(c3cnc(C4CC4)cc13)CCC2Nc1nc2ccccc2[nH]1 (centres unmarked) [Example 92] | 10 to 50 nM
* CC(C)(F)CNS(=O)(=O)c1cc2c(c3cnc(C4CC4)cc13)CC[C@H]2C(=O)Nc1cccnc1 (single isomer, unassigned) [Example 37] | 100 to 2000 nM
* Cc1cc(Nc2nncn2[C@H]2CCc3c2cc(S(=O)(=O)NCC(C)(C)F)c2cc(C4CC4)nnc32)n(C)n1 (single isomer, unassigned) [Example 25] | 50 to 100 nM
* CC(C)CNS(=O)(=O)c1cc2c(c3cnc(C4CC4)cc13)C(O)CC2 (centres unmarked) [Example 62] | 100 to 2000 nM
* CC(C)(F)CNS(=O)(=O)c1cc2c(c3cnc(C4CC4)cc13)CCC2C(=O)O (centres unmarked) [Example 7] | 100 to 2000 nM
* CC(C)CNS(=O)(=O)c1cc2c(c3cnc(C4CC4)cc13)C(Nc1ccc(C(=O)O)nc1)CC2 (centres unmarked) [Example 19] | 100 to 2000 nM
* CC(C)CNS(=O)(=O)c1cc2c(c3cnc(C4CC4)cc13)C(NS(=O)(=O)c1cccnc1)CC2 (centres unmarked) [Example 15] | 100 to 2000 nM
* CC(C)(F)CNS(=O)(=O)c1cc2c(c3cnc(C4CC4)cc13)C(Nc1cccnc1)CC2 (centres unmarked) [Example 32] | 50 to 100 nM
* CC(C)CNS(=O)(=O)c1cc2c(c3cnc(C4CC4)cc13)C(Nc1nncn1-c1cncc(F)c1)CC2 (centres unmarked) [Example 5] | 100 to 2000 nM
* CCNC(=S)NC1CCc2cc(S(=O)(=O)NCC(C)C)c3cc(C4CC4)ncc3c21 (centres unmarked) [Example 71] | 100 to 2000 nM
* CCNC1=NS(=O)(=O)N=C1NC1CCc2c1cc(S(=O)(=O)NCC(C)C)c1cc(C3CC3)ncc21 (centres unmarked) [Example 54] | 100 to 2000 nM
* CC(C)(F)CNS(=O)(=O)c1cc2c(c3cnc(C4CC4)cc13)C(Oc1cccnc1)CC2 (centres unmarked) [Example 93] | 100 to 2000 nM
* CC(C)CNS(=O)(=O)c1cc2c(c3cnc(C4CC4)c(F)c13)CCC2 [Example 27] | 100 to 2000 nM
* CC(C)CNS(=O)(=O)c1cc2c(c3cnc(C4CC4)cc13)C(NC(=S)Nc1cccnc1)CC2 (centres unmarked) [Example 74] | 100 to 2000 nM
* O=S(=O)(NC1CC(F)C1)c1cc2c(c3cnc(C4CC4)cc13)CCC2n1cnnc1NCC1CC1 (centres unmarked) [Example 82] | 100 to 2000 nM
* CC(C)CNS(=O)(=O)c1cc2c(c3cnc(C4CC4)cc13)C(n1cnnc1Nc1cncc(F)c1)CC2 (centres unmarked) [Example 6] | 100 to 2000 nM
* CC(C)CNS(=O)(=O)c1cc2c(c3cnc(C4CC4)cc13)[C@H](NC(=O)c1cccnc1)CC2 (single isomer, unassigned) [Example 21] | 10 to 50 nM
* CC(C)(F)CNS(=O)(=O)c1cc2c(c3cnc(C4CC4)cc13)OCC2O (centres unmarked) [Example 36] | 10 to 50 nM
* CC(C)CNS(=O)(=O)c1cc2c(c3cnc(C4CC4)cc13)C(NCc1cccnc1)CC2 (centres unmarked) [Example 14] | 100 to 2000 nM
